# System: Escherichia coli
# methodNotes: Antibacterial activity against Escherichia coli assessed as growth inhibition by microtitration method
# Format: functional
readoutLabel: MIC (µg/mL)

>  <testSmiles>
CCn1cc(C(=O)N2CCC[C@H]2C(=O)O)c(=O)c2ccc(C(F)(F)F)cc21

>  <MIC / µg/mL>
12.5

$$$$
>  <testSmiles>
CCOC(=O)[C@@H](NC(=O)c1cn(CC)c2cc(C(F)(F)F)ccc2c1=O)C(C)C

>  <MIC / µg/mL>
25

$$$$
>  <testSmiles>
CC(C)C[C@H](NC(=O)c1cnc2cc(C(F)(F)F)ccc2c1O)C(=O)O

>  <MIC / µg/mL>
25

$$$$

A. CCOC(=O)[C@@H](Cc1ccccc1)NC(=O)c1cn(CC)c2cc(C(F)(F)F)ccc2c1=O
B. CCn1cc(C(=O)N[C@H](C(=O)O)C(C)C)c(=O)c2ccc(C(F)(F)F)cc21
Q: Between A and B , whose recorded MIC is greater? // respond with label for picked entry
Result: A
